- assay_notes: RP-HPLC retention time on PepMap C18 column (UHPLC-ESI MS) as a measure of peptide hydrophobicity
- Type: physicochemical
- condition_info: used by the paper as measure of relative hydrophobicity, amidated-acetylated peptides, PepMap C18 column 300Å (75 μm × 150 mm), linear gradient 2% to 99% B (20% water–80% acetonitrile) with 0.1% FA over 40 min, 0.3 µL/min, 40 °C
endpoint_name: RP-HPLC retention time tR (min)
Your answer should be a plain number; it is taken to be in min.

- substance: "Ac-ESTNIMGIMRIKPHQGQHIGEMSFLQHNK-NH2 [VEGFQ79G, VEGF73-101 with point mutation in position 79 (Gln-Gly)]"
  RP-HPLC retention time tR, min: 21.4
- substance: "Ac-ESNITMQIMRIKPHQGQHIGEMSFLQHNK-NH2 [VEGF73-101]"
  RP-HPLC retention time tR, min: 21.7

Need RP-HPLC retention time tR, item Ac-ESTNIMQIMRGKPHQGQHIGEMSFLQHNK-NH2 [VEGFI83G, VEGF73-101 with point mutation in position 83 (Ile-Gly)]
20.4

Need RP-HPLC retention time tR, item Ac-KPHQGQHIGEMSFLQHNK-NH2 [VEGF84-101]
18.2
